Molecular target: HSP60/HSP10 (Homo sapiens, UniProt P10809+P61604);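 further: His-tagged human HSP60 with HSP10 refolding denatured MDH, read as MDH activity on mesoxalate by malachite green spectrometry, inhibition of refolding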
Sequence (P10809 whole entry): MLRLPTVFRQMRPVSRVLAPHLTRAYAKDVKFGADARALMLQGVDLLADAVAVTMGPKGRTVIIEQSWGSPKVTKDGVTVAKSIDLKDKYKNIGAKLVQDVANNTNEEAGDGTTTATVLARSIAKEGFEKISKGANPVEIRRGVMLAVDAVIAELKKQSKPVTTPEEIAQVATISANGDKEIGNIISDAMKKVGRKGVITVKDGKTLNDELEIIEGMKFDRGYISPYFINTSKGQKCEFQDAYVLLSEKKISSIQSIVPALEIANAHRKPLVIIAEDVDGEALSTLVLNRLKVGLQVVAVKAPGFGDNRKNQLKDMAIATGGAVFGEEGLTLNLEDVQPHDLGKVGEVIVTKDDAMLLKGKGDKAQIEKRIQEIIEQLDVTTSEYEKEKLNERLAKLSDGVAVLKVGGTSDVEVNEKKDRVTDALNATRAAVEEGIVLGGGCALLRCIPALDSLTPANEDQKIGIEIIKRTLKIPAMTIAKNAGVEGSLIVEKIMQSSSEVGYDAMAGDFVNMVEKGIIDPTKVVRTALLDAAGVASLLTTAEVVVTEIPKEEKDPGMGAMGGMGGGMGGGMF
Sequence (P61604 whole entry): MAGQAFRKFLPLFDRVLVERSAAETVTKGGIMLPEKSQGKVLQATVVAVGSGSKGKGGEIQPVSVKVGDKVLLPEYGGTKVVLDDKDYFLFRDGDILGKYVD

Molecular String	IC50 / µM
C=CC1=C(C)c2cc3[nH]c(cc4nc(cc5[nH]c(cc1n2)c(C)c5CCC(=O)O)C(CCC(=O)O)=C4C)c(C)c3C=C	4.9

###

Target: E. coli GroEL/ES (Escherichia coli);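 further: inhibition of E. coli GroEL/GroES-assisted refolding of denatured pig heart MDH, read out as recovered MDH activity on mesoxalate by malachite green absorbance after 20–40 min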
Sequence (P0A6F5 whole entry, looked up): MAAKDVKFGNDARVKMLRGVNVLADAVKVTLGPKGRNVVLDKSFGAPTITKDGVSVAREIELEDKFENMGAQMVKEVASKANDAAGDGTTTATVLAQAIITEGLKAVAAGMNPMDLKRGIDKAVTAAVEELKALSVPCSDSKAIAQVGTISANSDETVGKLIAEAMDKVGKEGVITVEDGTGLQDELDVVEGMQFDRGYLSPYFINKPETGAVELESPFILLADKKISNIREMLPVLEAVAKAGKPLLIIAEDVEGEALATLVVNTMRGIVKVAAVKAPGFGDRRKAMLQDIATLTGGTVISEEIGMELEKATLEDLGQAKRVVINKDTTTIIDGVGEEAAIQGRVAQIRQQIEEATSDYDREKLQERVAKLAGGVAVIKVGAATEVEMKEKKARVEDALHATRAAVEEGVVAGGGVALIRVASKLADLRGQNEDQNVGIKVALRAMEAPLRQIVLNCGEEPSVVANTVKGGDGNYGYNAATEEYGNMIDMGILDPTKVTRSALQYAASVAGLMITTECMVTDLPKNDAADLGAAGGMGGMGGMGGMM
pIC50: −log10 of the molar value.
Result Type: pIC50

Compound	Measured Target	Relation Symbol	Readout Number
COc1ccc(-c2ccc3cc(C(=O)O)ccc3c2)cc1C12CC3CC(CC(C3)C1)C2	E. coli GroEL/ES (Escherichia coli)	=	5.68
Cc1cc2nc3c(=O)[nH]c(=O)nc-3n(C[C@H](O)[C@H](O)[C@H](O)COP(=O)(O)O)c2cc1C [RIBOFLAVIN 5'-PHOSPHATE SODIUM]	E. coli GroEL/ES (Escherichia coli)	=	4.07
COc1ccc(C(=O)/C=C/c2ccccc2)cc1 [4'-METHOXYCHALCONE]	E. coli GroEL/ES (Escherichia coli)	=	4.89
CC1=CC(=O)c2ccccc2C1=O [MENADIONE]	E. coli GroEL/ES (Escherichia coli)	=	5.05
CC1=NCCc2c1[nH]c1cc(O)ccc21 [HARMALOL]	E. coli GroEL/ES (Escherichia coli)	<	4.00
